Target: HDAC6 enzyme (Homo sapiens, UniProt Q9UBN7)
Construct: transducing full length HDAC6 gene into Sf-9 insect cells; GST; purchased SignalChem; host or cells: Sf-9 insect cells
Sequence (Q9UBN7 1-1215): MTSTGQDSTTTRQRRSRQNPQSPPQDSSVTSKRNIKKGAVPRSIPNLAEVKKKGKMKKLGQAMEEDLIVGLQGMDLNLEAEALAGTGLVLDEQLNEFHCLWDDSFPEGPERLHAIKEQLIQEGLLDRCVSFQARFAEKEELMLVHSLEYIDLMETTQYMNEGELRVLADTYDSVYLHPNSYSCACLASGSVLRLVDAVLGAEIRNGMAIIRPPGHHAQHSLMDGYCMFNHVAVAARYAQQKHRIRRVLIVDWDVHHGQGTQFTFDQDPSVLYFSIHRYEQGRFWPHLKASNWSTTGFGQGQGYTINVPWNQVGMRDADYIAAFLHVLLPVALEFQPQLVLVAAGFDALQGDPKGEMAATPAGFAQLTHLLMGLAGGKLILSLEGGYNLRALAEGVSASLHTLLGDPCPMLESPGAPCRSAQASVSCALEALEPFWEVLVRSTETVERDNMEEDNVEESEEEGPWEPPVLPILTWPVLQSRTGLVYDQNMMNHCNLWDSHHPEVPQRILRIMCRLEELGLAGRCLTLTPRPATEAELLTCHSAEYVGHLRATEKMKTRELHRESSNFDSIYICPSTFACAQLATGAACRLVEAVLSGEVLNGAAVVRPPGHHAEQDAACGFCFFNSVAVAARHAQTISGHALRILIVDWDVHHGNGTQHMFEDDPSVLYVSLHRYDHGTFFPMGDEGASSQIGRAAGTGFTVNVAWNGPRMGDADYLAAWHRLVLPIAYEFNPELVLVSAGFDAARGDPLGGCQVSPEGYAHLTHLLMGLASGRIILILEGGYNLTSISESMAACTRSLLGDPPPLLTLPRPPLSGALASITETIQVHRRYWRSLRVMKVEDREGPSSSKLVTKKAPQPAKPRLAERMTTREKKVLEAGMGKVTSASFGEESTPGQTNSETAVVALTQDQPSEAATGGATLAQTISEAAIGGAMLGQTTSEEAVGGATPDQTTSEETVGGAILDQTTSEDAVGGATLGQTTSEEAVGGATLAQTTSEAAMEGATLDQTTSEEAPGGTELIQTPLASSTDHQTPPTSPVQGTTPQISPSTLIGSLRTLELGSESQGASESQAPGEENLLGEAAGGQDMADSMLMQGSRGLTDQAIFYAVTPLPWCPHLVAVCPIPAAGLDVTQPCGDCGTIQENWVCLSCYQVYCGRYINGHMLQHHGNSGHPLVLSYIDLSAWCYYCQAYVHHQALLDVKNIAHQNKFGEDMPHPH
Test: HDAC6 enzyme inhibitory activity (HDAC-Glo I/II Assay kit)
Format: biochemical
Conditions: 10 μM; wells without enzyme = 100% inhibition; read-out: HDAC6 inhibitory rate (%) (10 μM)
outcome-measure: inhibition at 10 µM (%)
Give just the numeric value; % need not be written.

Given the compound `N#CCOc1cccc(-c2ccccc2N2Cc3ccc(-c4nnc(C(F)F)o4)cc3C2=O)c1` , what is its reported inhibition at 10 µM?
97

Further, for `O=C1c2cc(-c3nnc(C(F)F)o3)cnc2CN1[C@@H]1CC(F)(F)CC[C@H]1NC(=O)C(F)(F)C(F)F` ?
99
